target: T1, N-10 peptide
T1 construct: also called PSMGFR N-10; PSMGFR minus 10 amino acids from the N-terminus
T1 peptide: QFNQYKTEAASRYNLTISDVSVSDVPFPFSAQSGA
assay_method_text: ELISA, peptide on plate (FIG. 201B)
quantity_measured: binding result

binder	endpoint_result
monoclonal antibody B2 (antibody, V domains shown, Raised against PSMGFR) VH: EVVLVESGGGLVEPGGSLKLSCVASGFAFSTFAMSWIRQTPEKRLEWVAAISNGGGYTYYPDTLKGRFSISRDNAKNTLYLQMSSLRSEDTAVYYCARRYYDLYFDLWGRGTSLIVSS VL: DILMTQTPLSLPVSLGDQASISCRSSQNIVHSNGNTYLEWYLQKPGQSPKLLIYKVSNRFSGVPDRFSGSGSGTDFTLKISRVEAEDLGVYYCFQDSHVPLTFGAGTRLELK	binds
monoclonal antibody H11 (antibody, V domains shown, Raised against PSMGFR) VH: EVVLVESGGGLVEPGGSLKLSCVASGFAFSTFAMSWIRQTPEKRLEWVAAISNGGGYTYYPDTLKGRFTISRDNAKNTLYLQMSSLRSEDTAVYYCARRYYDLYFDLWGQGTSLIVSS VL: DILMTQTPLSLPVSLGDQASISCRSSQNIVHSNGNTYLEWYLQKPGQSPKLLIYKVSNRFSGVPDRFSGSGSGTDFTLKISRVEAEDLGVYYCFQDSHVPLTFGAGTRLELK	binds
monoclonal antibody B12 (antibody, V domains shown, Raised against PSMGFR) VH: QAQLKESGPGLVAPSQSLSITCTVSGFSLTSYGVHWVRQPPGKGLEWLGVIWPGGSTNYNSTLMSRMRIIKDNSKSQVFLKMNSLQIDDTAMYYCARDRTPRVGAWFAYWGQGTLVTVSA VL: IIVLTQSPASLAVSLGQRATISCRASESVATYGNNFMQWYQQKPGQPPKLLIYLASTLDSGVPARFSGSGSRTDFTLTIDPVEADDAATYYCQQNNEDPPTFGGGTKLEIK	binds
